molecular target: ABCG2/BCRP (Homo sapiens); assay: in vitro; details: human, intact PLB-985 cells expressing ABCG2, probe PhenGreen-SK diacetate, 0.25 µM
Sequence (Q9UNQ0 whole entry): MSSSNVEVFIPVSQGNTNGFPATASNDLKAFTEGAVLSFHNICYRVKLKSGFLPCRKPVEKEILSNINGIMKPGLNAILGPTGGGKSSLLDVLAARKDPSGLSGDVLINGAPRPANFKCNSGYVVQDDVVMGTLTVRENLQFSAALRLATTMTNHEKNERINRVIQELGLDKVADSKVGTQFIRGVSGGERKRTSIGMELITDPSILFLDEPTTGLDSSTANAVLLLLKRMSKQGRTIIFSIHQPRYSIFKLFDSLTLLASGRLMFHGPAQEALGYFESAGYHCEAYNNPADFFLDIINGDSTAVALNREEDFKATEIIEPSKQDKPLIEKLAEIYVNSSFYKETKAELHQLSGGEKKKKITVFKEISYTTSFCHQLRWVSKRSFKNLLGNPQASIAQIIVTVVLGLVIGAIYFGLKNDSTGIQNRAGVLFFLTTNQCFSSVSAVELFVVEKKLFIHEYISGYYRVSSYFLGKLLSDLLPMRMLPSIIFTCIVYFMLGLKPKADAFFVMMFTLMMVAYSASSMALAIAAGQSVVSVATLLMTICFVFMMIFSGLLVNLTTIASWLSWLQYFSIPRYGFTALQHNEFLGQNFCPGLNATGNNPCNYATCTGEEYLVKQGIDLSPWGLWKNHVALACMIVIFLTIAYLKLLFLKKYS
Measurement kind: IC50 at 40 min

Req: Name the recorded IC50 at 40 min of the molecule listed here: NC(=O)c1nc(F)c[nH]c1=O
Resp: > 50 µM

###

target: OATP2B1 (Homo sapiens, UniProt O94956); assay: in vitro; conditions: A431 cells overexpressing OATP2B1, pH 5.5, probe pyranine, 20 µM
Sequence (O94956 whole entry): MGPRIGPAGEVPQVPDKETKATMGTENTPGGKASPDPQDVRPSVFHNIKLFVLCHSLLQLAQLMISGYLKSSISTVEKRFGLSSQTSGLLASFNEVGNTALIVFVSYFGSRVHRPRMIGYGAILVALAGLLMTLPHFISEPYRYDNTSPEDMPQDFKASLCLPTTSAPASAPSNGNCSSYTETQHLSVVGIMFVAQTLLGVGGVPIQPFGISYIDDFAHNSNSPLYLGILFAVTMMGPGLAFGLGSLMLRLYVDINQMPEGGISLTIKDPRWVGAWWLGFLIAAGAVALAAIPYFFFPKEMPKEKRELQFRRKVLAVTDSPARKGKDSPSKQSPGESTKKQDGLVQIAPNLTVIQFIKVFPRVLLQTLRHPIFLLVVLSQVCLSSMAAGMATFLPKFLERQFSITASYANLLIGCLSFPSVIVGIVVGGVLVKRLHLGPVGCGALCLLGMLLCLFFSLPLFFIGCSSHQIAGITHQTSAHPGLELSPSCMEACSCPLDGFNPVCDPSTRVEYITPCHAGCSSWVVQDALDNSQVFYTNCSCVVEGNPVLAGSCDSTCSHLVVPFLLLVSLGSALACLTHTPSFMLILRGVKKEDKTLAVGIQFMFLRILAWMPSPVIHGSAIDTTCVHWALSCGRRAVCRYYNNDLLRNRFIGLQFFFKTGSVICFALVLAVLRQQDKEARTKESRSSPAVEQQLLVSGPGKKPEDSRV
Measurement kind: IC50 at 15 min

Req: Write down IC50 at 15 min measured for item NC(=O)c1nc(F)c[nH]c1=O
Resp: > 50 µM

###

molecular target: ABCC1/MRP1 (Homo sapiens); experiment: in vitro
Sequence (P33527 whole entry): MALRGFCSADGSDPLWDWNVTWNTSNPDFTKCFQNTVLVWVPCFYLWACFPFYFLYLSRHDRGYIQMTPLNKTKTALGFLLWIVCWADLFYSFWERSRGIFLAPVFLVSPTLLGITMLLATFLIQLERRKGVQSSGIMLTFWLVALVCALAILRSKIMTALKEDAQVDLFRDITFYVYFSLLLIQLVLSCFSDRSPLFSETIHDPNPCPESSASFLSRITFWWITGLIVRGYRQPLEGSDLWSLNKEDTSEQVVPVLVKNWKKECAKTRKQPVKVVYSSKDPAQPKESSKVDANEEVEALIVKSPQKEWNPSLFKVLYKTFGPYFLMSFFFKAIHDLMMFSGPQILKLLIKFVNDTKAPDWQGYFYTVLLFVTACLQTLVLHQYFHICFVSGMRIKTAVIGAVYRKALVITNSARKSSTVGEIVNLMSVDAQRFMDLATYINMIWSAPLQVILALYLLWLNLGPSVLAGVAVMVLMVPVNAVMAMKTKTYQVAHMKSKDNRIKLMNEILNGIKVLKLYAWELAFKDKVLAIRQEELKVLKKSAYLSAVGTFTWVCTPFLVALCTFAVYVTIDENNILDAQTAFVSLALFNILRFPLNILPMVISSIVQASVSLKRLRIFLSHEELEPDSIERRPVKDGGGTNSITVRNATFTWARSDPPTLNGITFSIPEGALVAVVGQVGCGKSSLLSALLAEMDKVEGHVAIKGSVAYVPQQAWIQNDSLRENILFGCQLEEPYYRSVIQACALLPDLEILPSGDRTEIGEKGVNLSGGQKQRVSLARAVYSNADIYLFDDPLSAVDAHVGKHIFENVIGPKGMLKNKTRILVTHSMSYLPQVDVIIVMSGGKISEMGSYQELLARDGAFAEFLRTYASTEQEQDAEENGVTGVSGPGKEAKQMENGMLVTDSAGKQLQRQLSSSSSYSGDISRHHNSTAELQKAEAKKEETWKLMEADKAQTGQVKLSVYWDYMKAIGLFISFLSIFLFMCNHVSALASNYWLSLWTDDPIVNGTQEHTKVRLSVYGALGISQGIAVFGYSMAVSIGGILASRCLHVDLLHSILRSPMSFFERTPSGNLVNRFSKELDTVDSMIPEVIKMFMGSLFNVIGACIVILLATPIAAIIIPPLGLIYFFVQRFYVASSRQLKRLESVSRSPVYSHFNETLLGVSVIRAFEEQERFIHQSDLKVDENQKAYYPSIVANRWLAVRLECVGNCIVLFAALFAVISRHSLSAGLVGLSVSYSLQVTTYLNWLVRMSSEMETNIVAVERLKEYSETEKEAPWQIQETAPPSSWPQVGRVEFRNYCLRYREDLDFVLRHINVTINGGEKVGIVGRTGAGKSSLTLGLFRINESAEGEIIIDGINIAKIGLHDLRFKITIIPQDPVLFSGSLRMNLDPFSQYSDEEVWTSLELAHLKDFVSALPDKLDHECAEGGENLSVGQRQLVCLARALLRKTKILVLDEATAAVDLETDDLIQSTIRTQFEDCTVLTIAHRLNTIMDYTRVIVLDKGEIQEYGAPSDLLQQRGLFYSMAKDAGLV
Measurement kind: inhibition at 3 min
Returns: string containing the number followed by the unit.

Req: Indicate its recorded inhibition at 3 min; the compound in question is Cc1cccc(C)c1OCC(=O)N[C@@H](Cc1ccccc1)[C@@H](O)C[C@H](Cc1ccccc1)NC(=O)[C@H](C(C)C)N1CCCNC1=O
Resp: 60%

Each recorded value in this set is attributed to paper PMC7827085.
